src = patent US9815851B2

- SYSTEM_TESTED: UniProtKB P51449
- ASSAY_OVERVIEW: RORγ Gal4 Reporter Gene Assay in 293T cells (firefly and renilla luciferase)
- Assay type: cell-based, human
I'd appreciate it if you could supply pIC50 (REN) values for the items below.

Enquiry: Quick one: pIC50 (REN) for COC(C)(C)c1cc(C(=O)NC(C)(C)C)cc(-c2cc(C(=O)NC3CCOCC3)c(C)n2CC2CCCCC2)c1 ?
Return: 5.5/6.8/6.8

Enquiry: Next: Cc1c(C(=O)NCC(C)(C)O)cc(-c2cc(C(=O)NC(C)(C)C)cc(C(C)(C)C)c2)n1CC1CCCCC1
Return: 6.0/7.3/7.4

Enquiry: Also check CC(=O)c1cc(-c2cc(C(=O)NC3CCOCC3)c(C)n2CC2CCCCC2)cc(C(C)(C)C)c1
Return: 6.1/6.7/6.8

Enquiry: Another compound to look at: Cc1c(C(=O)NC2COC2)cc(-c2cc(C(=O)N(C)C(C)(C)C)cc(C(C)(C)C)c2)n1CC1CCCCC1
Return: 5.8/7.3/7.3

Enquiry: Please give the result for Cc1n[nH]cc1-c1ccc(-c2cc(C(=O)NC3CCOCC3)c(C)n2CC2CCCCC2)cc1C(C)(C)C too.
Return: 6.6/7.4/7.5

Enquiry: Okay, and Cc1c(C(=O)NCC(=O)N(C)C)cc(-c2cc(C(C)(C)C)cc(C(C)(C)C)c2)n1CC1CCCCC1 ?
Return: 6.2/6.7/6.7

Enquiry: And then Cc1c(C(=O)NCC2(S(C)(=O)=O)CCOCC2)cc(-c2cc(C(C)(C)C)c3c(c2)C2(CCO3)CC2)n1CC1CCCCC1 , what is it?
Return: 6.7/7.2/7.2

Enquiry: Request: Cc1c(C(=O)NC2CCOCC2)cc(-c2ccc(S(=O)(=O)NC3(C)CC3)c(C(C)(C)C)c2)n1CC1CCCCC1
Return: 6.3/8.1/8.1

Enquiry: Moving on to Cc1c(C(=O)NC2CC(=O)C2)cc(-c2cc(C(C)(C)C)c3c(c2)C2(CCO3)CC2)n1CC1CCCCC1
Return: 6.2/7.0/6.9

Enquiry: Moving on to the next compound: Cc1c(C(=O)NCC2CNCCO2)cc(-c2cc(C(C)(C)C)c3c(c2)C2(CCO3)CC2)n1CC1CCCCC1.Cl (centres unmarked)
Return: 5.5/<4.7/<4.7

Enquiry: Also Cc1c(C(=O)NC2CCOCC2)cc(-c2ccc(S(=O)(=O)NC(C)(C)C)c(C(F)(F)F)c2)n1CC1CCCC(C(F)(F)F)C1 (centres unmarked) , if possible.
Return: 6.3/6.9/6.9

Enquiry: What would you report for Cc1c(C(=O)NC2(CO)CC2)cc(-c2cc(C(C)(C)C)cc(C(C)(C)C)c2)n1CC1CCCCC1 ?
Return: 6.2/6.2/6.2

Enquiry: Now the compound Cc1c(C(=O)N2CC2CO)cc(-c2cc(C(C)(C)C)cc(C(C)(C)C)c2)n1CC1CCCCC1 (centres unmarked)
Return: 6.0/6.5/6.4

Enquiry: Another compound: Cc1c(C(=O)NC2CCOCC2)cc(-c2ccc(C(=O)NC(C)(C)C)c(C(F)(F)F)c2)n1CC1CCCCC1
Return: 5.0/6.8/7.3

Enquiry: What do you have for Cc1c(C(=O)NCCS(C)(=O)=O)cc(-c2cc(C(C)(C)C)c3c(c2)C2(CCO3)CC2)n1CC1CCCCC1 ?
Return: 6.3/6.8/6.8

Enquiry: What about Cc1c(C(=O)NC2CCOCC2)cc(-c2ccc(S(=O)(=O)NC(C)(C)C)c3cnccc23)n1CC1CCCCC1 ?
Return: 5.9/7.5/7.5

Enquiry: Record: Cc1c(C(=O)NCCCCCO)cc(-c2cc(C(C)(C)C)cc(C3(C)CC3)c2)n1CC1CCCCC1
Return: 6.8/7.4/7.4

Enquiry: Now consider Cc1c(C(=O)NCc2nc(C(N)=O)co2)cc(-c2cc(C(C)(C)C)c3c(c2)C2(CCO3)CC2)n1CC1CCCCC1 and answer again.
Return: 6.1/6.3/6.4

Enquiry: Field entry: Cc1c(C(=O)NC2COC2)cc(-c2cc(C(=O)NC(C)(C)C)cc(C(F)(F)F)c2)n1CC1CCCCC1
Return: 6.3/6.9/6.9

Enquiry: Try this compound next: CCN(C(C)(C)C)S(=O)(=O)c1ccc(-c2cc(C(=O)NC3CCOCC3)c(C)n2CC2CCCCC2)cc1C(F)F
Return: 7.1/6.4/6/

Enquiry: Same question, Cc1c(C(=O)N(C)CC2(O)CCOCC2)cc(-c2cc(C(C)(C)C)c3c(c2)C2(CCO3)CC2)n1CC1CCCCC1 this time
Return: 6.4/6.9/6.8

Enquiry: Also Cc1c(C(=O)NC2CCOCC2)cc(-c2cc(C(=O)NC(C)(C)C)cc(C(=O)NC(C)(C)C)c2)n1CC1CCCCC1 , if possible.
Return: 5.2/5.8/5.8

Enquiry: Also need Cc1c(C(=O)NCC2CCS(=O)(=O)CC2)cc(-c2cc(C(C)(C)C)c3c(c2)C2(CCO3)CC2)n1CC1CCCCC1 , thanks.
Return: 6.4/7.6/7.6

Enquiry: Cc1c(C(=O)NC2CS(=O)(=O)C2)cc(-c2ccc(S(=O)(=O)NC(C)(C)C)c(C(C)(C)C)c2)n1CC1CCCCC1 ?
Return: 6.2/7.1/7.0

Enquiry: Now the compound Cc1c(C(=O)NC2CSC2)cc(-c2cc(C(C)(C)C)cc(C(C)(C)C)c2)n1CC1CCCCC1
Return: 5.7/6.5/6.6

Enquiry: Check Cc1c(C(=O)NC2COC2)cc(-c2cc(C(C)(C)C)cc(C(F)(F)F)c2)n1CC1CCCCC1 too.
Return: 6.5/7.1/7.1

Enquiry: Would you kindly repeat that for Cc1c(C(=O)NC23CCC(C(=O)O)(CC2)CC3)cc(-c2ccc(S(=O)(=O)NC(C)(C)C)c(C(F)(F)F)c2)n1CC1CCCCC1 ?
Return: 6.3/7.8/7.9

Enquiry: What would you report for Cc1c(C(=O)NCCOC(C)C)cc(-c2cc(C(C)(C)C)cc(C(C)(C)C)c2)n1CC1CCCCC1 ?
Return: 6.5/6.4/6.3

Enquiry: Another compound to look at: Cc1c(C(=O)NC2CCOCC2)cc(-c2ccc(S(=O)(=O)N(CC(F)(F)F)C(C)(C)C)c(C(C)(C)C)c2)n1CC1CCCCC1
Return: 5.9/8.0/7.9
